Experiment: Cytotoxicity against mouse L929 cells after 96 hrs by alamar blue assay
Type: cell-based
Each record's class is read off its CC50 at 96 h using these ranges: lo: < 60 µM; med: ≥ 60 µM and < 100 µM; hi: ≥ 100 µM

Q) Note: place this molecule into its band. Item: Clc1ccc2c(NCc3ccccc3)ccnc2c1
A) lo

Q) Determine which band this molecule sits in: Clc1ccc2[nH]c(CNC3CCCCC3)cc2c1
A) lo

Q) Band of Clc1ccc2c(NCCCN3CCOCC3)ccnc2c1 ?
A) hi

Q) # bin lookup: classify Clc1ccc2[nH]c(CNCc3ccccc3)cc2c1 by its CC50 at 96 h
A) lo

Q) Returns: class label. Input: c1ccc2c(c1)CCN(c1ccncn1)C2
A) hi

Q) Please let me know in which category the item Clc1ccc2c(NCCN3CCCCC3)ccnc2c1 belongs.
A) med

Q) Hi, small favor: classify Clc1ccc2[nH]c(CNCCCN3CCOCC3)cc2c1 by its CC50 at 96 h when you get a moment.
A) med

Q) Form field 'band' for O=C(CN1CCc2ccccc2C1)Nc1ccccc1
A) hi

Q) Where would CCCNc1ccnc2cc(Cl)ccc12 land among the classes by reported CC50 at 96 h?
A) hi

Q) Class label required: Cc1ccc(NC(=O)CN2CCc3ccccc3C2)cc1
A) hi

###

Assay: Selectivity index, ratio of CC50 for mouse L929 cells to IC50 for Trypanosoma cruzi Tulahuen trypomastigote forms infected in mouse L929 cells
Type: toxicity, cell-based
Conditions: read-out: Ratio CC50/IC50
Mark TRUE only for selectivity ratio values smaller than 2; exact matches and larger values are FALSE.

Q) Quick check: does CCCNc1ccnc2cc(Cl)ccc12 have selectivity ratio under 2?
A) FALSE

Q) Does the reported selectivity ratio of the following compound sit strictly below 2? Clc1ccc2[nH]c(CNCCCN3CCOCC3)cc2c1
A) TRUE

Q) Criterion: selectivity ratio strictly below 2. Is it met by Clc1ccc2c(NCc3ccccc3)ccnc2c1 ?
A) TRUE

Q) Quick check: does O=C(CN1CCc2ccccc2C1)Nc1ccccc1 have selectivity ratio under 2?
A) TRUE

Q) Record Clc1ccc2c(NCCCN3CCCCC3)ccnc2c1 : is its selectivity ratio strictly below 2?
A) TRUE

Q) Could you please tell me whether selectivity ratio recorded for Cc1ccc(NC(=O)CN2CCc3ccccc3C2)cc1 is less than 2?
A) TRUE

Q) Consider Clc1ccc2c(NCCCN3CCOCC3)ccnc2c1 . Does its selectivity ratio lie strictly below 2?
A) TRUE

Q) Decide: selectivity ratio of c1ccc2c(c1)CCN(c1ccncn1)C2 strictly below 2?
A) FALSE

Q) hey, is selectivity ratio for O=C(CN1CCc2ccccc2C1)Nc1ccc(Cl)cc1 lower than 2 or not?
A) TRUE

Q) Identify whether the compound Clc1ccc2c(NCCN3CCCCC3)ccnc2c1 records selectivity ratio below 2.
A) TRUE

Q) Please check: selectivity ratio for Clc1ccc2[nH]c(CNCc3ccccc3)cc2c1 , strictly under 2 or not?
A) TRUE

Q) Determine whether this compound shows selectivity ratio lower than 2 (ties excluded): Clc1ccc2[nH]c(CNC3CCCCC3)cc2c1
A) TRUE

###

Would you kindly list pIC50 for each of these molecules?
Target: Cruzipain (Trypanosoma cruzi, UniProt P25779)
Sequence (P25779 whole entry): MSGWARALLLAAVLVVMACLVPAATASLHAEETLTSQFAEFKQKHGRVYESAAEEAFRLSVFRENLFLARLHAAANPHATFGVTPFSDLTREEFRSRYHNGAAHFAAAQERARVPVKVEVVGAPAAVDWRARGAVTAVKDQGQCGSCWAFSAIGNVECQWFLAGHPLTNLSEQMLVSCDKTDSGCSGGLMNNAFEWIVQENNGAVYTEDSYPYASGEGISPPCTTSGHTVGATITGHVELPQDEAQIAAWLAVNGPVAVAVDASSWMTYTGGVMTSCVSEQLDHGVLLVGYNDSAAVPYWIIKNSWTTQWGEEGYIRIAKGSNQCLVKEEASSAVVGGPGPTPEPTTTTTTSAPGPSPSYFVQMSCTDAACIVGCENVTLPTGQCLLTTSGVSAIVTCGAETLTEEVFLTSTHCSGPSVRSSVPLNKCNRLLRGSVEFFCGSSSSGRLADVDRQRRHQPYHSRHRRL
Assay: Inhibition of recombinant Trypanosoma cruzi cruzain using Z-phe-Arg-amidomethylcoumarin as substrate by fluorometric method
The scale used: pIC50 is minus the common logarithm of the concentration in molar units.

Q) Please report the measured pIC50 for Clc1ccc2c(NCCCN3CCOCC3)ccnc2c1
A) 4.82

Q) Specify pIC50 for Clc1ccc2c(NCCN3CCOCC3)ccnc2c1 and stop.
A) 4.39

Q) Using known records, supply pIC50 for OCCNc1ccnc2cc(Cl)ccc12
A) 4.21

Q) Could you please provide reported pIC50 for Clc1ccc2c(NCc3ccccc3)ccnc2c1 ? Thanks!
A) 4.36

Q) Give me measured pIC50, please, for this molecule: Clc1ccc2[nH]c3c(NCCCN4CCOCC4)ncnc3c2c1
A) 4.82

Q) Return pIC50 for the following molecule: OCCCNc1ccnc2cc(Cl)ccc12
A) 4.55
